Test system: BT-549 breast
Assay: NCI tumour cell line growth inhibition, 48 h
// no (0) strictly below 20 µM in TGI; yes (1) otherwise

Consider the following illustrative entries.
NNC(=O)c1cc(=O)[nH][nH]1 = yes (1)
O=C(CC(Cl)=C(Cl)Cl)c1cccc(Cl)c1Cl = yes (1)
CN1C(=O)C2(c3ccccc31)N(c1ccc(Cl)cc1)C(=O)C2(c1ccccc1)c1ccccc1 (configuration not stated) = yes (1)
C[C@@H]1S[C@H](c2c(Cl)cccc2Cl)N2Cc3ccccc3N=C12 = yes (1)
CC1=C(Nc2ccc(N3CCN(C)CC3)cc2)C(=O)c2cncnc2C1=O = yes (1)

Task item: Quick check: does `COc1ccc2c(OCc3nnc4ccc(-c5ccccc5)nn34)ccnc2c1` have TGI greater than or equal to 20 µM?
Reply: yes (1)

Task item: Form field: TGI at least 20 µM? Entry: `c1cc2c(cn1)Nc1ccncc1S2`
Reply: yes (1)

Task item: State whether the measured TGI reaches 20 µM, counting equality as reaching it, for COc1ccc(/C=C/C2=NN(c3cccc(S(=O)(=O)O)c3)C3(C2)SCC(=O)N3c2nc3ccccc3s2)cc1 (configuration not stated)
Reply: yes (1)

Task item: Threshold query (TGI >= 20 µM) on `CCc1nc(N)nc(N)c1-c1ccc(N2CCNCC2)cc1`
Reply: yes (1)

Task item: Form field: TGI at least 20 µM? Entry: `CNc1ncc(-c2nnnn2-c2ccccc2)c(CN(C)C)n1`
Reply: yes (1)

* * *

System: SN12C renal
Assay: NCI tumour cell line growth inhibition, 48 h; in the data active means GI50 below about 0.43 µM; inactive means the rest
A correct response names exactly one class from 1 (yes) (active), 0 (no) (inactive)

O=C(Nc1nc2ccccc2s1)Nc1ccc([N+](=O)[O-])cc1Cl = 0 (no)

Task item: Could you check what this test reported for `COc1ccc(N(C)c2nc(N)nc3sc4c(c23)CCCC4)cc1` ?
Reply: 1 (yes)

Task item: Would you mind telling me which call this test gave `COC(=O)[C@H]1CCCN1C(=O)[C@H]1CCCN1C(=O)[C@H](Cc1c[nH]c2ccccc12)NC(=S)Nc1cc(C(F)(F)F)cc(C(F)(F)F)c1` ?
Reply: 0 (no)

* * *

Test system: NCI-H226 lung
Test: NCI tumour cell line growth inhibition, 48 h
Everything with TGI lower than 20 µM is n; everything else, including exactly 20 µM, is y.

See these solved cases before continuing.
CCN(CC)c1ccc2cc(C(=O)Nc3ccccn3)c(=N)oc2c1 = y
Cc1c(/C=N/N(C)C)oc2c1cc(O)c1ncccc12 = y
COc1cccc(/C=N/[N-]C(N)=O)c1[O-].[Cu+2].[OH3+].c1ccc(-c2ccccn2)nc1 = y
CC1=NC(=Cc2ccc([N+](=O)[O-])cc2)C(=O)N1n1c(-c2ccccc2)nc2ccccc2c1=O = y
C/C1=C\C=C(\C(C)C)CC/C(C(=O)O)=C\CC/C(C)=C/CC1 = y
NC(=S)c1c(N)n(C2OC(CO)C(O)C2O)c2ncnc(N)c12 (configuration not stated) = n
O=C1/C=C/[C@@H](O)[C@@H]2C[C@@H](O)C[C@H]2/C=C/CCC[C@H](C(F)(F)F)O1 = n
C[N+]1(CCN[N+]2(C)CCCCC2)CCc2ccccc2C1 (configuration not stated) = y
CN1CCN(CCCOc2cccc3nc(Nc4ccc(Cl)c(C(F)(F)F)c4)ccc23)CC1 = n
CN(C)c1cc[n+](-c2nc(/N=C(\[O-])C(F)(F)F)nc3c2ncn3C2CC(O)C(CO)O2)cc1 (configuration not stated) = y

Task item: Check this compound for TGI at or above 20 µM: COc1ccc(/C=C/C2=NN(c3cccc(S(=O)(=O)O)c3)C3(C2)SCC(=O)N3c2nc3ccccc3s2)cc1 (configuration not stated)
Reply: y

Task item: Decide: TGI of `CSC(=Nc1ccccc1)/N=C(\SCc1ccccc1)N(C)C` >= 20 µM?
Reply: n

Task item: // inclusive: TGI at least 20 µM? input: `CO[C@H]1C[C@@H]2CC[C@@H](C)[C@@](O)(O2)C(=O)C(=O)N2CCCC[C@H]2C(=O)O[C@H]([C@H](C)C[C@@H]2CC[C@@H](OCCO)[C@H](OC)C2)CC(=O)[C@H](C)C=C(C)[C@@H](O)[C@@H](OC)C(=O)[C@H](C)C[C@H](C)/C=C/C=C/C=C1C`
Reply: y

Task item: Is the recorded value of TGI equal to or greater than 20 µM for this compound? `CC[C@H](C)[C@H](NC(=O)CN(C)C)C(=O)N(C)[C@H](C[C@@H](OC(C)=O)c1nc(C(=O)NC23CC(C(=O)OC)(C2)C3)cs1)C(C)C`
Reply: y

* * *

Measured GI50, listed per entry for reference.
System: MDA-MB-231 breast
Assay: NCI tumour cell line growth inhibition, 48 h

Reference set (5 entries):
COC(=O)[C@H]1CCCN1C(=O)[C@H]1CCCN1C(=O)[C@H](Cc1c[nH]c2ccccc12)NC(=S)Nc1cc(C(F)(F)F)cc(C(F)(F)F)c1 = 2.18 µM
COc1ccc(N=N/C(C(=O)C(F)(F)F)=C(\O)c2ccc(Cl)cc2)cc1 = 9.11 µM
CO[C@H]1C[C@@H]2CC[C@@H](C)[C@@](O)(O2)C(=O)C(=O)N2CCCC[C@H]2C(=O)O[C@H]([C@H](C)C[C@@H]2CC[C@@H](OCCO)[C@H](OC)C2)CC(=O)[C@H](C)C=C(C)[C@@H](O)[C@@H](OC)C(=O)[C@H](C)C[C@H](C)/C=C/C=C/C=C1C = 11.6 µM
COc1ccc2c(OCc3nnc4ccc(-c5ccccc5)nn34)ccnc2c1 = > 20.3 µM
COc1cc2nc3cc([N+](=O)[O-])ccc3c(NCCNCC(C)(C)O)c2cc1OC = 0.451 µM

Task item: Input `Cn1cc(C2=C(c3cn(CCCCCSC(=N)N)c4ccccc34)C(=O)NC2=O)c2ccccc21` , output reported GI50.
Reply: 3.91 µM

Task item: // Input: N#CC1c2ccccc2C=CN1C(=O)N(c1ccccc1)c1ccccc1 (configuration not stated) . Output its GI50 only.
Reply: 2.94 µM

* * *

Tested on: SF-268 CNS
Test: NCI tumour cell line growth inhibition, 48 h
Outcome measure: TGI

# annotated cases, reported TGI shown
Cc1c(/C=N/N(C)C)oc2c1cc(O)c1ncccc12 = > 100 µM
CC1=C(C(=O)Nc2cc(F)c(F)cc2F)C(c2ccc([N+](=O)[O-])cc2)C(C(=O)Nc2cc(F)c(F)cc2F)=C(C)N1 = > 100 µM
CN(C)CCNC(=O)c1cccc2c1Oc1c(cccc1[N+](=O)[O-])O2 = 12.2 µM
CCn1c(-c2nonc2N)nc2cncc(C(=O)N3CC[C@H](N)C3)c21 = > 25 µM
COc1ccc(-n2sc3ncccc3c2=O)cc1 = 58.3 µM

Task item: Identify TGI associated with the molecule `CCCCCCCCCCCC[n+]1ccc2ccccc2c1`
Reply: 2.57 µM

Task item: Read off the recorded TGI for `COC(=O)c1ccc(Nc2nc3nc[nH]c3c(=O)[nH]2)cc1`
Reply: > 100 µM

Task item: Please list TGI recorded for the molecule `Cn1nc(-c2ccccc2)c2c(/C=C/c3ccccc3)onc2c1=O`
Reply: > 100 µM

Task item: Answer with reported TGI of `CN(C)C(=S)SCC(=O)Nc1ccccc1`
Reply: > 100 µM

Task item: Given the molecule O=[N+]([O-])c1cccc(C2CC(c3ccccc3)=Nc3ccccc3S2)c1 (stereo not given) , write its reported TGI.
Reply: 26.9 µM

Task item: Give reported TGI value for COc1cc(C2c3cc4c(cc3OC(NCCO)C2C)OCO4)cc(OC)c1OC (stereo not given)
Reply: > 84.9 µM

Task item: Provide TGI value for the following molecule: `O=C1c2ccccc2C(=O)c2c(OCCOCCO)cccc21`
Reply: > 100 µM

Task item: Give the value of TGI reported for the following: CN(C)/N=C1\CC(c2ccccc2)C(C#N)(C#N)C1(C#N)C#N (stereo not given)
Reply: 35.6 µM

Task item: Answer with reported TGI of `O=[N+]([O-])c1ccc(O)c(/C=N/NC(=S)N2CCCCC2)c1`
Reply: 24.6 µM

Task item: Consider the molecule N#CC1c2ccccc2C=CN1C(=O)N(c1ccccc1)c1ccccc1 (stereo not given) and give its recorded TGI.
Reply: 15.4 µM

* * *

Test system: EKVX NSCLC
Experiment: NCI tumour cell line growth inhibition, 48 h
Outcome measure: TGI

Known results for compounds:
N#C[C@H](c1nc2ccccc2s1)c1nc2ccccc2nc1Cl = > 100 µM
Nc1ncnc2c1ncn2C1CC(OCc2ccccc2[N+](=O)[O-])C(CO)O1 (centres undefined) = > 50 µM
O=P(O)(O)C1(P(=O)(O)O)CC1 = > 100 µM
COc1ccc(C(C2=C(O)COC2=O)c2cc3c(cc2O)OCO3)cc1OC (centres undefined) = > 100 µM
O=C1C(CN2CCOCC2)CCCC1CN1CCOCC1 (centres undefined) = 10.7 µM
Cc1ccc2c(c1)C(=O)C(C1OC(=O)c3ccccc31)C2 (centres undefined) = > 100 µM

Task item: Note TGI for the compound shown: `Cn1c(-c2c(N)n(CCCN3CCOCC3)c3nc(C#N)c(C#N)nc23)nc2ccccc21`
Reply: > 100 µM

Task item: Supply TGI value. Item: `C[C@@H]1S[C@H](c2c(Cl)cccc2Cl)N2Cc3ccccc3N=C12`
Reply: > 100 µM

Task item: Note down TGI recorded for `Nc1c(Cl)ncnc1NCCCNc1ncnc(Cl)c1N`
Reply: > 100 µM

Task item: Could you please provide reported TGI for `CN(C)C(=S)SCC(=O)Nc1ccccc1` ? Thanks!
Reply: > 100 µM

Task item: State its TGI: `COc1ccc2c(OCc3nnc4ccc(-c5ccccc5)nn34)ccnc2c1`
Reply: > 100 µM

Task item: Give the measured TGI for CC1(c2ccc(Cl)cc2)C2C(=O)NC(=O)C1C(=O)NC2=O (centres undefined)
Reply: > 100 µM

Task item: State its TGI for this compound: `CCC(=O)c1c(C(F)(F)F)n([O-])c2cc(F)c(F)cc2[n+]1=O`
Reply: 4.91 µM

Task item: Identify the reported TGI for the following entry. `COc1ccc(N=N/C(C(=O)C(F)(F)F)=C(\O)c2ccc(Cl)cc2)cc1`
Reply: 22.3 µM

Task item: Please report the measured TGI for `CN(C)CCNC(=O)c1cccc2c1Oc1c(cccc1[N+](=O)[O-])O2`
Reply: 14.3 µM

Task item: Return value of TGI for input `CSc1c(C(=O)Nc2ccc(Cl)cc2)c(N)n(N)c(=O)c1C#N` , no commentary.
Reply: > 100 µM

Task item: Retrieve TGI measured for `COc1cc2nc3cc([N+](=O)[O-])ccc3c(NCCNCC(C)(C)O)c2cc1OC` and print it.
Reply: 5.7 µM

Task item: Kindly indicate its recorded TGI. Item: `CC(=O)NNc1nc(C)c(C(=O)NNC(=O)C(=O)Nc2ccc(Cl)cc2Cl)s1`
Reply: > 100 µM

Task item: # return recorded TGI for input NC(Cc1ccc(S(=O)(=O)O)cc1)C(=O)NC(Cc1ccc(S(=O)(=O)O)cc1)C(=O)O (centres undefined)
Reply: > 100 µM
